For each of the compounds below, state its percent inhibition of viability.
- Tested on: NKL (IL-2 2.5 ng/mL)
- protocol notes: percent inhibition of viability; higher = more inhibition;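 also: normalised to DMSO-only wells as negative and benzethonium chloride as positive control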
- condition label: 72 h; 0.1 nM
Respond with a number, then the unit of measure.

Quick batch: percent inhibition of viability for everything below.
1. CC[C@]1(O)C[C@H]2CN(CCc3c([nH]c4ccccc34)[C@@](C(=O)OC)(c3cc4c(cc3OC)N(C=O)[C@H]3[C@@](O)(C(=O)OC)[C@H](OC(C)=O)[C@]5(CC)C=CCN6CC[C@]43[C@@H]65)C2)C1 [Vincristine] (max concentration tested 1000 nM)
2. Cn1ncnc1[C@H]1c2n[nH]c(=O)c3cc(F)cc(c23)N[C@@H]1c1ccc(F)cc1 [Talazoparib] (max concentration tested 1000 nM)
3. NC(=O)c1cccc(-c2cccc(OC(=O)NC3CCCCC3)c2)c1 [URB597] (max concentration tested 1000 nM)
4. CCc1cnn2c(NCc3ccc[n+]([O-])c3)cc(N3CCCC[C@H]3CCO)nc12 [Dinaciclib] (max concentration tested 1000 nM)
5. NC1(c2ccc(-c3nc4ccn5c(=O)[nH]nc5c4cc3-c3ccccc3)cc2)CCC1 [MK-2206] (max concentration tested 1000 nM)
6. O=C1NC(=O)[C@@H](c2cn3c4c(cccc24)CCC3)[C@@H]1c1c[nH]c2ccccc12 [Tivantinib] (max concentration tested 1000 nM)

Response:
["-4.74%", "-2.21%", "3.64%", "4.95%", "-12.3%", "-20.3%"]

Batch lookup, percent inhibition of viability per entry.
1. C[C@]12CC[C@@H]3c4ccc(O)cc4C[C@@H](CCCCCCCCC[S+]([O-])CCCC(F)(F)C(F)(F)F)[C@H]3[C@@H]1CC[C@@H]2O (stereo partly drawn) [Fulvestrant] (max concentration tested 1000 nM)
2. NC(=O)Nc1cc(-c2cccc(F)c2)sc1C(=O)N[C@H]1CCCNC1 [AZD7762] (max concentration tested 1000 nM)

Response:
-3.73%
-9.43%

* * *

- System: NK-YS (IL-2 2.5 ng/mL)
- protocol notes: percent inhibition of viability; higher = more inhibition
- condition label: 72 h; 10 nM
metric: percent inhibition of viability (%)
Numbers only, in %.

compound	measured value
COc1cc([C@@H]2c3cc4c(cc3[C@@H](O[C@@H]3O[C@@H]5CO[C@@H](C)O[C@H]5[C@H](O)[C@H]3O)[C@H]3COC(=O)[C@H]23)OCO4)cc(OC)c1O [Etoposide] (max concentration tested 10000 nM)	4.01
CN[C@@H](C)C(=O)N[C@H]1CN(C(=O)CC(C)C)CC[C@H]2CC[C@@H](C(=O)NC(c3ccccc3)c3ccccc3)N2C1=O [AT-406] (max concentration tested 10000 nM)	-11.9

Answer for every listed entry: what is its percent inhibition of viability? The entries follow.
1. CN(N=O)C(=O)N[C@@H](C=O)[C@@H](O)[C@H](O)[C@H](O)CO [Streptozocin] (max concentration tested 10000 nM)
2. CC(C)NC[C@@H](C(=O)N1CCN(c2ncnc3c2[C@H](C)C[C@H]3O)CC1)c1ccc(Cl)cc1 [GDC-0068] (max concentration tested 10000 nM)
3. NS(=O)(=O)OC[C@@H]1C[C@@H](n2ccc3c(N[C@H]4CCc5ccccc54)ncnc32)C[C@@H]1O [Pevonedistat] (max concentration tested 10000 nM)
4. CC(C)Oc1cc(Nc2nc(N[C@@H](C)c3ccc(F)cn3)ncc2Cl)n[nH]1 [AZ-23] (max concentration tested 1000 nM)
5. CN1CCN(c2nc(C3=C(c4c[nH]c5ccccc45)C(=O)NC3=O)c3ccccc3n2)CC1 [Sotrastaurin] (max concentration tested 10000 nM)

Response:
1. -5.94
2. 4.06
3. -1.33
4. 3.08
5. -1.7
